# target_entity: type-VI B porcine pancreatic α-amylase (Sus scrofa, UniProt P00690)
# Sequence (P00690 16-511): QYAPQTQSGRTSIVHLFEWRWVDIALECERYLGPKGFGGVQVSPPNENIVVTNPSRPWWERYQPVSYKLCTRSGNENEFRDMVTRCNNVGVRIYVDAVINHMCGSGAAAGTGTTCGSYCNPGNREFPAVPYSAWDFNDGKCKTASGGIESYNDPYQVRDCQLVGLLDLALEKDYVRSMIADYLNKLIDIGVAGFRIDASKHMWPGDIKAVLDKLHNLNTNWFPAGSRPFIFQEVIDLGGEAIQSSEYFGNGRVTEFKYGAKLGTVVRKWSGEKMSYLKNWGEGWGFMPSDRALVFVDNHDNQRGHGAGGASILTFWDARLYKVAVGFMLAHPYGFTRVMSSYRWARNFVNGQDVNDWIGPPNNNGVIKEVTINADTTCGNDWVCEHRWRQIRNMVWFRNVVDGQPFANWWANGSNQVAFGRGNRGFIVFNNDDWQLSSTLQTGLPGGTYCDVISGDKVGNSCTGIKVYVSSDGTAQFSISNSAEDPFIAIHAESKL
Assign IC50 to each entry below.
Respond with the bare value in µM.

Request: Please respond with reported IC50 (system type-VI B porcine pancreatic α-amylase (Sus scrofa, UniProt P00690)) for "N#Cc1c(-c2ccc(Cl)c(Cl)c2O)cc(N2C(=O)c3ccccc3C2=O)[nH]c1=O" .
Response: 5000

Request: Please respond with reported IC50 (system type-VI B porcine pancreatic α-amylase (Sus scrofa, UniProt P00690)) for "CC(=NNC(=O)COc1cccc2cccnc12)c1ccc(N2C(=O)c3ccccc3C2=O)cc1" .
Response: 910

Request: Please respond with reported IC50 (system type-VI B porcine pancreatic α-amylase (Sus scrofa, UniProt P00690)) for "N#Cc1c(-c2ccccc2)cc(N2C(=O)c3ccccc3C2=O)nc1N" .
Response: 3500

Request: Please respond with reported IC50 (system type-VI B porcine pancreatic α-amylase (Sus scrofa, UniProt P00690)) for "N#Cc1c(-c2ccccc2O)cc(N2C(=O)c3ccccc3C2=O)nc1N" .
Response: 260

Request: Please respond with reported IC50 (system type-VI B porcine pancreatic α-amylase (Sus scrofa, UniProt P00690)) for "N#Cc1c(-c2ccc([N+](=O)[O-])cc2)cc(N2C(=O)c3ccccc3C2=O)[nH]c1=O" .
Response: 1600

Request: Please respond with reported IC50 (system type-VI B porcine pancreatic α-amylase (Sus scrofa, UniProt P00690)) for "S=C1N=NC(COc2cccc3cccnc23)=N1" .
Response: 3650

Request: Please respond with reported IC50 (system type-VI B porcine pancreatic α-amylase (Sus scrofa, UniProt P00690)) for "N#Cc1c(-c2ccc([N+](=O)[O-])cc2)cc(N2C(=O)c3ccccc3C2=O)nc1N" .
Response: 1500

Request: Please respond with reported IC50 (system type-VI B porcine pancreatic α-amylase (Sus scrofa, UniProt P00690)) for "N#Cc1c(-c2ccccc2)cc(N2C(=O)c3ccccc3C2=O)[nH]c1=O" .
Response: 880

Request: Please respond with reported IC50 (system type-VI B porcine pancreatic α-amylase (Sus scrofa, UniProt P00690)) for "N#Cc1c(-c2ccccc2O)cc(N2C(=O)c3ccccc3C2=O)[nH]c1=O" .
Response: 3550

====

Assign IC50 to each entry below.
# target_entity: type-VI B porcine pancreatic α-amylase (Sus scrofa)
# Construct: type-VI B porcine pancreatic α-amylase; from tissue; host or cells: porcine pancreas (preparation grade 'type-VI B')
# procedure_text: α-Amylase inhibition with soluble starch (1%)
# Assay type: biochemical
# condition_parameters: mean ± SE, triplicate
Respond with the bare value in µM.

Request: In one line, give reported IC50 of the entry N#Cc1c(-c2ccc(Cl)c(Cl)c2O)cc(N2C(=O)c3ccccc3C2=O)nc1N [compound 7d] .
Response: 210

Request: In one line, give reported IC50 of the entry N#Cc1c(-c2ccccc2O)nn(C(=O)COc2cccc3cccnc23)c1N [4c] .
Response: 1600

Request: In one line, give reported IC50 of the entry NNC(=O)COc1cccc2cccnc12 [compound 1, 2-(Quinolin-8-yloxy)acetohydrazide] .
Response: 900

Request: In one line, give reported IC50 of the entry N#Cc1c(-c2ccc([N+](=O)[O-])cc2)nn(C(=O)COc2cccc3cccnc23)c1N [4a] .
Response: 720

Request: In one line, give reported IC50 of the entry N#Cc1c(-c2ccc(Cl)cc2)nn(C(=O)COc2cccc3cccnc23)c1N [compound 4b] .
Response: 1550

====

# target_entity: yeast α-glycosidase (Saccharomyces cerevisiae, UniProt P38158)
# Sequence (P38158 whole entry): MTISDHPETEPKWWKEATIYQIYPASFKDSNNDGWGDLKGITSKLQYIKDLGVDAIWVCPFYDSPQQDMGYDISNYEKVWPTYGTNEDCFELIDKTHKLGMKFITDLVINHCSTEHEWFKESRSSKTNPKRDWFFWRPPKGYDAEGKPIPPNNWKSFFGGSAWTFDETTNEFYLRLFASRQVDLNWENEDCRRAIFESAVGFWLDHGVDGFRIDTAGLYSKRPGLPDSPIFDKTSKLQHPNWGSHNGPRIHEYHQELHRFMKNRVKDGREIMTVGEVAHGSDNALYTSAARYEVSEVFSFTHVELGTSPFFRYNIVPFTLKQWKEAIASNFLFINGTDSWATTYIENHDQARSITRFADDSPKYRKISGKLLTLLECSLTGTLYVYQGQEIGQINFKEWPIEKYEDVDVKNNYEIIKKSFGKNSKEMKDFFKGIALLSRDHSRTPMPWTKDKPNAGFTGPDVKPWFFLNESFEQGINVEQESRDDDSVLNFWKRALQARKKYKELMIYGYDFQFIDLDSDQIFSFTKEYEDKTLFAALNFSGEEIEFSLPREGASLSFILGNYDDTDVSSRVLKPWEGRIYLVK
# procedure_text: biochemical
# condition_parameters: mean ± SE, triplicate; read-out: IC50 α-Glycosidase
measurement_kind: pIC50
Quick note: pIC50 means taking -log10 of the concentration in moles per liter.

Request: In one line, give reported pIC50 of the entry NNC(=O)COc1cccc2cccnc12 [compound 1, 2-(Quinolin-8-yloxy)acetohydrazide] .
Response: 3.30

====

Assign melting point to each entry below.

Request: In one line, give reported melting point of the entry "CC(=NNC(=O)COc1cccc2cccnc12)c1ccc(N2C(=O)c3ccccc3C2=O)cc1" .
Response: 211 to 213 °C

Request: In one line, give reported melting point of the entry "N#Cc1c(-c2ccccc2)cc(N2C(=O)c3ccccc3C2=O)[nH]c1=O" .
Response: 216 to 218 °C

Request: In one line, give reported melting point of the entry "N#Cc1c(-c2ccccc2)cc(N2C(=O)c3ccccc3C2=O)nc1N" .
Response: 167 to 169 °C

Request: In one line, give reported melting point of the entry "N#Cc1c(-c2ccccc2O)cc(N2C(=O)c3ccccc3C2=O)[nH]c1=O" .
Response: 205 to 207 °C

Request: In one line, give reported melting point of the entry "N#Cc1c(-c2ccccc2O)cc(N2C(=O)c3ccccc3C2=O)nc1N" .
Response: 160 to 162 °C

Request: In one line, give reported melting point of the entry "N#Cc1c(-c2ccc(Cl)c(Cl)c2O)cc(N2C(=O)c3ccccc3C2=O)[nH]c1=O" .
Response: 233 to 235 °C

Request: In one line, give reported melting point of the entry "N#Cc1c(-c2ccc([N+](=O)[O-])cc2)cc(N2C(=O)c3ccccc3C2=O)[nH]c1=O" .
Response: 221 to 223 °C

Request: In one line, give reported melting point of the entry "N#Cc1c(-c2ccccc2O)nn(C(=O)COc2cccc3cccnc23)c1N" .
Response: 157 to 159 °C

Request: In one line, give reported melting point of the entry NNC(=O)COc1cccc2cccnc12 [compound 1, 2-(Quinolin-8-yloxy)acetohydrazide] .
Response: 137 to 139 °C

Reference source: paper PMC10535292
